src = ChEMBL document CHEMBL2407075

- Tested on: KM12
- test-name: Growth inhibition of human KM12 cells at 10 uM after 48 hrs by sulforhodamine B assay
- Format: functional
- condition-set: KM12, 48 h, read-out: GI

cpd-smiles: O=S(=O)(Nc1ccc(Cl)cc1)c1ccc2nc(-c3ccccc3)c(-c3ccccc3)nc2c1
inhibition of growth at 10 µM: 38.7%
//
cpd-smiles: NC(=S)NNS(=O)(=O)c1ccc2nc(-c3ccccc3)c(-c3ccccc3)nc2c1
inhibition of growth at 10 µM: 15.9%
//
cpd-smiles: O=S(=O)(Nc1cccc2ccccc12)c1ccc2nc(-c3ccccc3)c(-c3ccccc3)nc2c1
inhibition of growth at 10 µM: 29.9%
//
cpd-smiles: O=C(NS(=O)(=O)c1ccc2nc(-c3ccccc3)c(-c3ccccc3)nc2c1)c1ccccc1
inhibition of growth at 10 µM: 21%
//
cpd-smiles: O=S(=O)(Nc1ccccn1)c1ccc2nc(-c3ccccc3)c(-c3ccccc3)nc2c1
inhibition of growth at 10 µM: 61.5%
//
cpd-smiles: CC(=S)NS(=O)(=O)c1ccc2nc(-c3ccccc3)c(-c3ccccc3)nc2c1
inhibition of growth at 10 µM: 16.8%
//
cpd-smiles: COc1ccccc1NS(=O)(=O)c1ccc2nc(-c3ccccc3)c(-c3ccccc3)nc2c1
inhibition of growth at 10 µM: 8.62%

---

List of inhibition of growth at 10 µM values.
- Tested on: Malme-3M
- test-name: Growth inhibition of human MALME-3M cells at 10 uM after 48 hrs by sulforhodamine B assay
- Format: functional
- condition-set: read-out: GI

cpd-smiles: COc1ccccc1NS(=O)(=O)c1ccc2nc(-c3ccccc3)c(-c3ccccc3)nc2c1
unit-abbreviation: %
inhibition of growth at 10 µM: 1.87
//
cpd-smiles: NC(=S)NNS(=O)(=O)c1ccc2nc(-c3ccccc3)c(-c3ccccc3)nc2c1
unit-abbreviation: %
inhibition of growth at 10 µM: 2.94
//
cpd-smiles: CC(=S)NS(=O)(=O)c1ccc2nc(-c3ccccc3)c(-c3ccccc3)nc2c1
unit-abbreviation: %
inhibition of growth at 10 µM: 2.85
//
cpd-smiles: O=S(=O)(Nc1ccccn1)c1ccc2nc(-c3ccccc3)c(-c3ccccc3)nc2c1
unit-abbreviation: %
inhibition of growth at 10 µM: 32.9
//
cpd-smiles: O=C(NS(=O)(=O)c1ccc2nc(-c3ccccc3)c(-c3ccccc3)nc2c1)c1ccccc1
unit-abbreviation: %
inhibition of growth at 10 µM: 7.67
//
cpd-smiles: O=S(=O)(Nc1ccc(Cl)cc1)c1ccc2nc(-c3ccccc3)c(-c3ccccc3)nc2c1
unit-abbreviation: %
inhibition of growth at 10 µM: 6.64
//
cpd-smiles: O=S(=O)(Nc1cccc2ccccc12)c1ccc2nc(-c3ccccc3)c(-c3ccccc3)nc2c1
unit-abbreviation: %
inhibition of growth at 10 µM: 9.98

---

- Tested on: RPMI-8226
- test-name: Growth inhibition of human RPMI8226 cells at 10 uM after 48 hrs by sulforhodamine B assay
- Type: functional
- condition-set: RPMI-8226, 48 h, read-out: GI
Tag: y if measured inhibition of growth at 10 µM is not below 60%, n if it is.

cpd-smiles: CC(=S)NS(=O)(=O)c1ccc2nc(-c3ccccc3)c(-c3ccccc3)nc2c1
assigned-label: n
--
cpd-smiles: O=S(=O)(Nc1ccc(Cl)cc1)c1ccc2nc(-c3ccccc3)c(-c3ccccc3)nc2c1
assigned-label: y
--
cpd-smiles: COc1ccccc1NS(=O)(=O)c1ccc2nc(-c3ccccc3)c(-c3ccccc3)nc2c1
assigned-label: y
--
cpd-smiles: O=S(=O)(Nc1cccc2ccccc12)c1ccc2nc(-c3ccccc3)c(-c3ccccc3)nc2c1
assigned-label: n
--
cpd-smiles: O=S(=O)(Nc1ccccn1)c1ccc2nc(-c3ccccc3)c(-c3ccccc3)nc2c1
assigned-label: y
--
cpd-smiles: NC(=S)NNS(=O)(=O)c1ccc2nc(-c3ccccc3)c(-c3ccccc3)nc2c1
assigned-label: n

---

- System: NCI-H322M
- test-name: Growth inhibition of human NCI-H322M cells at 10 uM after 48 hrs by sulforhodamine B assay
- Type: functional
- condition-set: read-out: GI
Cut-off 20% on inhibition of growth at 10 µM, inclusive. At or above means label 1; below means label 0.

cpd-smiles: O=C(NS(=O)(=O)c1ccc2nc(-c3ccccc3)c(-c3ccccc3)nc2c1)c1ccccc1
assayed-target: NCI-H322M
assigned-label: label 1
--
cpd-smiles: O=S(=O)(Nc1ccccn1)c1ccc2nc(-c3ccccc3)c(-c3ccccc3)nc2c1
assayed-target: NCI-H322M
assigned-label: label 1
--
cpd-smiles: CC(=S)NS(=O)(=O)c1ccc2nc(-c3ccccc3)c(-c3ccccc3)nc2c1
assayed-target: NCI-H322M
assigned-label: label 0
--
cpd-smiles: NC(=S)NNS(=O)(=O)c1ccc2nc(-c3ccccc3)c(-c3ccccc3)nc2c1
assayed-target: NCI-H322M
assigned-label: label 0
--
cpd-smiles: O=S(=O)(Nc1cccc2ccccc12)c1ccc2nc(-c3ccccc3)c(-c3ccccc3)nc2c1
assayed-target: NCI-H322M
assigned-label: label 1
--
cpd-smiles: COc1ccccc1NS(=O)(=O)c1ccc2nc(-c3ccccc3)c(-c3ccccc3)nc2c1
assayed-target: NCI-H322M
assigned-label: label 1
--
cpd-smiles: O=S(=O)(Nc1ccc(Cl)cc1)c1ccc2nc(-c3ccccc3)c(-c3ccccc3)nc2c1
assayed-target: NCI-H322M
assigned-label: label 1

---

- Test system: PC-3
- test-name: Growth inhibition of human PC3 cells at 10 uM after 48 hrs by sulforhodamine B assay
- Type: functional
- condition-set: PC-3, 48 h, read-out: GI
Items are presented alongside their recorded inhibition of growth at 10 µM.

cpd-smiles: O=S(=O)(Nc1ccc(Cl)cc1)c1ccc2nc(-c3ccccc3)c(-c3ccccc3)nc2c1
assayed-target: PC-3
inhibition of growth at 10 µM (%): 60
//
cpd-smiles: NC(=S)NNS(=O)(=O)c1ccc2nc(-c3ccccc3)c(-c3ccccc3)nc2c1
assayed-target: PC-3
inhibition of growth at 10 µM (%): 34.6
//
cpd-smiles: O=C(NS(=O)(=O)c1ccc2nc(-c3ccccc3)c(-c3ccccc3)nc2c1)c1ccccc1
assayed-target: PC-3
inhibition of growth at 10 µM (%): 41.9
//
cpd-smiles: CC(=S)NS(=O)(=O)c1ccc2nc(-c3ccccc3)c(-c3ccccc3)nc2c1
assayed-target: PC-3
inhibition of growth at 10 µM (%): 33.9
//
cpd-smiles: O=S(=O)(Nc1ccccn1)c1ccc2nc(-c3ccccc3)c(-c3ccccc3)nc2c1
assayed-target: PC-3
inhibition of growth at 10 µM (%): 72.2
//
cpd-smiles: COc1ccccc1NS(=O)(=O)c1ccc2nc(-c3ccccc3)c(-c3ccccc3)nc2c1
assayed-target: PC-3
inhibition of growth at 10 µM (%): 52.8
//
cpd-smiles: O=S(=O)(Nc1cccc2ccccc12)c1ccc2nc(-c3ccccc3)c(-c3ccccc3)nc2c1
assayed-target: PC-3
inhibition of growth at 10 µM (%): 41.8

---

- Tested on: CAKI-1
- test-name: Growth inhibition of human CAKI-1 cells at 10 uM after 48 hrs by sulforhodamine B assay
- Type: functional
- condition-set: CAKI-1, 48 h, read-out: GI
Please mark yes if the recorded inhibition of growth at 10 µM is equal to or greater than 20%, and no if it falls below.

cpd-smiles: O=S(=O)(Nc1cccc2ccccc12)c1ccc2nc(-c3ccccc3)c(-c3ccccc3)nc2c1
assayed-target: CAKI-1
assigned-label: no
//
cpd-smiles: NC(=S)NNS(=O)(=O)c1ccc2nc(-c3ccccc3)c(-c3ccccc3)nc2c1
assayed-target: CAKI-1
assigned-label: no
//
cpd-smiles: CC(=S)NS(=O)(=O)c1ccc2nc(-c3ccccc3)c(-c3ccccc3)nc2c1
assayed-target: CAKI-1
assigned-label: no
//
cpd-smiles: O=S(=O)(Nc1ccc(Cl)cc1)c1ccc2nc(-c3ccccc3)c(-c3ccccc3)nc2c1
assayed-target: CAKI-1
assigned-label: yes
//
cpd-smiles: O=C(NS(=O)(=O)c1ccc2nc(-c3ccccc3)c(-c3ccccc3)nc2c1)c1ccccc1
assayed-target: CAKI-1
assigned-label: no
//
cpd-smiles: COc1ccccc1NS(=O)(=O)c1ccc2nc(-c3ccccc3)c(-c3ccccc3)nc2c1
assayed-target: CAKI-1
assigned-label: yes
//
cpd-smiles: O=S(=O)(Nc1ccccn1)c1ccc2nc(-c3ccccc3)c(-c3ccccc3)nc2c1
assayed-target: CAKI-1
assigned-label: yes

---

- test-name: Growth inhibition of human EKVX cells at 10 uM after 48 hrs by sulforhodamine B assay
- Assay type: functional
- condition-set: read-out: GI
Each entry below carries its reported inhibition of growth at 10 µM.
assay-readout: inhibition of growth at 10 µM (%)

cpd-smiles: O=C(NS(=O)(=O)c1ccc2nc(-c3ccccc3)c(-c3ccccc3)nc2c1)c1ccccc1
endpoint-result: 26.5
//
cpd-smiles: O=S(=O)(Nc1ccc(Cl)cc1)c1ccc2nc(-c3ccccc3)c(-c3ccccc3)nc2c1
endpoint-result: 57.8
//
cpd-smiles: COc1ccccc1NS(=O)(=O)c1ccc2nc(-c3ccccc3)c(-c3ccccc3)nc2c1
endpoint-result: 48.8
//
cpd-smiles: CC(=S)NS(=O)(=O)c1ccc2nc(-c3ccccc3)c(-c3ccccc3)nc2c1
endpoint-result: 8.53
//
cpd-smiles: O=S(=O)(Nc1cccc2ccccc12)c1ccc2nc(-c3ccccc3)c(-c3ccccc3)nc2c1
endpoint-result: 71.2
//
cpd-smiles: O=S(=O)(Nc1ccccn1)c1ccc2nc(-c3ccccc3)c(-c3ccccc3)nc2c1
endpoint-result: 80.8
//
cpd-smiles: NC(=S)NNS(=O)(=O)c1ccc2nc(-c3ccccc3)c(-c3ccccc3)nc2c1
endpoint-result: 23.7
